The values you see were collected from patent US20230235004A1.

Target: T1, human MAdCAM expressed on cells (human, UniProt Q13477 19-382)
T1 construct: whole, on cells
T1 sequence (looked up): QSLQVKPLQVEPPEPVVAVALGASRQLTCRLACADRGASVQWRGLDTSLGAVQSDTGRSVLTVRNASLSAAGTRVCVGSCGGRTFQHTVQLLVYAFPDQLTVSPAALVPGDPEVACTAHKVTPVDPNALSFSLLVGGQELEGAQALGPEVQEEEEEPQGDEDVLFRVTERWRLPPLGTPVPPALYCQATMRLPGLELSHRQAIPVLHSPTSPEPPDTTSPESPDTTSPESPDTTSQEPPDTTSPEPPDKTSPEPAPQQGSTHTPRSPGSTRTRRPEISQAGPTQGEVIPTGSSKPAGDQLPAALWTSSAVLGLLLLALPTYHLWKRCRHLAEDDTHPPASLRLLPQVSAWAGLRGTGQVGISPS
Assay: cell binding
Measurement Label: binding result

Binder | Measurement Label | Recorded Result
MAdCAM Antibody Table 2 clone 77 (antibody, V domains shown, IgG format) VH: EVQLLESGGGLVQPGGSLRLSCAASEFTFSNAWMSWVRQAPGKGLEWVASISSTSAYIDYADSVKGRFTISRDNSKNTLYLQMNSLRAEDTAVYYCAREVVGATTFDYWGQGTLVTVSS VL: DIQMTQSPSSLSASVGDRVTITCRASQSISTWLAWYQQKPGKAPKLLIYAASSLQSGVPSRFSGSGSGTDFTLTISSLQPEDFATYYCQQANAFPPTFGQGTRLEIK | binding result | binds
MAdCAM Antibody Table 2 clone 39 (antibody, V domains shown, IgG format) VH: QVQLVQSGAEVKKPGASVKVSCKASGYTFTSYYMHWVRQAPGQGLEWMAWMNPNSGNTGYAQKFQGRVTMTRDTSTSTVYMELSSLRSEDTAVYYCARDYDFWSGSLGYWGQGTLVTVSS VL: DIQMTQSPSSLSASVGDRVTITCRASQGISNYLAWYQQKPGKAPKLLIYAASSLQSGVPSRFSGSGSGTDFTLTISSLQPEDFATYYCQQSYSTPWTFGQGTKVEIK | binding result | binds
MAdCAM Antibody Table 2 clone 63 (antibody, V domains shown, IgG format) VH: EVQLLESGGGLVQPGGSLRLSCAASGFTFNNYGMNWVRQAPGKGLEWVSRINSDGSSTSYADSVKGRFTISRDNSKNTLYLQMNSLRAEDTAVYYCARGAYYYYYMDVWGQGTLVTVSS VL: EIVMTQSPATLSVSPGERATLSCRASQSVSGSYLAWYQQKPGQAPRLLIYATSSRASGIPARFSGSGSGTEFTLTISSLQSEDFAVYYCQQYYSGLTFGQGTKVEIK | binding result | binds
